# Measured On: Regulator of G-protein signaling 4 (Homo sapiens) (UniProt P49798)
# Sequence (P49798 whole entry, looked up): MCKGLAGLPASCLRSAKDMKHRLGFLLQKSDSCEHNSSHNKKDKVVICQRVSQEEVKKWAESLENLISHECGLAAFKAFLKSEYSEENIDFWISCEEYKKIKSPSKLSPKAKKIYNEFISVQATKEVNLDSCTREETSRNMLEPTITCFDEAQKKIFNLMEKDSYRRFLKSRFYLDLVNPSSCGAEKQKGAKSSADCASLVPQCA
# Method Summary: RGS4-Galphao binding modulators, SAR follow-up, biochemical, multiplexed bead flow cytometry, SAR compounds (AID 2295)
# Protocol Conditions: bead-based flow cytometry, RGS4-AF488 Galphao binding; measured here: Ki calculated from EC50
Experimental Readout: Ki (µM)

// known answers, use as guide
O=C1C(Cl)=C(N2CCCCC2)C(=O)C(Cl)=C1c1cnc(N2CCCCC2)s1 :: 0.23
O=c1c2ccccc2sn1-c1ccc(S(=O)(=O)N2CCCC2)cc1 :: 0.27
Cc1cccc(N2CCN(C(=O)COc3nsc4nc(C)cc(C)c34)CC2C)c1 (configuration not stated) :: 5.83
CCOC(=O)c1sc(NC(=O)CSc2nnc(Cc3ccccc3)o2)c(C#N)c1C :: 6.68

P: O=C(NCCCN1CCOCC1)c1sc2cc([N+](=O)[O-])ccc2c1Cl
Q: CCC(=O)NC(c1ccc(C)cc1)c1cc([N+](=O)[O-])c2cccnc2c1O (configuration not stated)
R: NS(=O)(=O)c1ccc(N/N=C/c2ccc(O)c(O)c2O)c([N+](=O)[O-])c1
Query string: Order the records so the highest Ki appears first and the lowest last. # format: label list in the order the request specifies
Result string: P, Q, R

Recorded values, source PubChem BioAssay AID2295.
